# Experimental system: EF2K (Homo sapiens, UniProt O00418)
# Construct: host or cells: LN-229 cell lysate
# Sequence (O00418 whole entry): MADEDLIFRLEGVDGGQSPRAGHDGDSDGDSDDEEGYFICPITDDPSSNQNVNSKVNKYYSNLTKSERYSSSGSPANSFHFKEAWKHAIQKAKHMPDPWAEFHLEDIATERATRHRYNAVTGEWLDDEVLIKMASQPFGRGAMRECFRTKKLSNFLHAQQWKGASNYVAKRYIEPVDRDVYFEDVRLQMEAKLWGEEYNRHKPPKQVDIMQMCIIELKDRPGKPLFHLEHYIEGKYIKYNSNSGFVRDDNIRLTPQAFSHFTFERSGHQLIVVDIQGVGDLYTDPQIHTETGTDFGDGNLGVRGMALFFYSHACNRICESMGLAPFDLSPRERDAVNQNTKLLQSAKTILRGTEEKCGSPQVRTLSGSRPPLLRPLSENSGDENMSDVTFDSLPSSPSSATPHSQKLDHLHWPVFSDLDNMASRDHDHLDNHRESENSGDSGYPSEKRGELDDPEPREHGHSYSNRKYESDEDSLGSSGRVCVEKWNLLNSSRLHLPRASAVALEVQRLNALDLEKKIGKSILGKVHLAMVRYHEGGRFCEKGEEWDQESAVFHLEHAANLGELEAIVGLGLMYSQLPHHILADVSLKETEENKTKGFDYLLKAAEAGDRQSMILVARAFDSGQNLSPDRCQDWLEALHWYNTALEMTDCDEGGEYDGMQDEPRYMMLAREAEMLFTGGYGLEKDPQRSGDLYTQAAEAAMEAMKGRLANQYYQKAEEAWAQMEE
# Assay overview: EF2K cell-based assay (P-EF2 AlphaLISA, 2-deoxyglucose stimulated MCF10A cells)
# Details: 2.5 mM 2-deoxyglucose stimulated, P-EF2 Thr56, pIC50 = -log IC50 (M), read-out: eEF2K_C_PThr56 pIC50 (converted)
# Method: In this assay, 2.5 mM 2-deoxyglucose was used to deplete intracellular ATP and activate 5′ adenosine monophosphate-activated protein kinase (AMPK) in the immortalized epithelial breast cell lines, MCF10A. MCF 10A cells were purchased from ATCC (CRL-10317). MCF10A cells are seeded at a density of 1.25×10^5 Cells/ml at 100 μl/well in a 96-well plate and incubated for 24 hours (37° C., 5% CO2). […] P-EF2 levels are determined in these lysates using the P-EF2 AlphaLISA described above. […]
Measure: IC50 (M)
One number for each entry, in M.

- O=C1CN2CCN(CC2)Cc2cccc(c2F)Nc2nccc(n2)-c2ccc(nc2)NCCCN1 [Compound 4]: 8.71e-06
- CNC(=O)c1ccc2cc1CN1CCN(CC1)CC(=O)N(C)CCCN(C)c1ccc(cn1)-c1ccnc(n1)N2 [Compound 12]: 1.05e-05

Attention now turns to another entry.
Prompt line: Would you mind telling me what IC50 value was observed for CN1CCCN(C)c2ccc(cn2)-c2ccnc(n2)Nc2cccc(c2)CN2CCN(C)C(CC1=O)C2 (stereo not shown) [Compound 129] ?
Response line: 9.33e-06

----------
# Experimental system: EF2K (Homo sapiens, UniProt O00418)
# Construct: host or cells: LN-229 cell lysate
# Assay overview: Biochemical EF2K lysate-based kinase assay (AlphaLISA p-eEF2 Thr56)
# Details: pIC50 = -log IC50 (M), read-out: eEF2K_C_alphalisa pIC50 (converted)
Measure: IC50

• O=C1CN2CCN(CC2)Cc2cc(Cl)cc(c2)Nc2nccc(n2)-c2ccc(nc2)NCCCN1 [Compound 9] = ~6.03e-06 M
• Cc1cc2cc(c1)Nc1nccc(n1)-c1ccc(nc1)NCCCNC(=O)CN1CCN(CC1)C2 [Compound 7] = 1.38e-05 M

For every item below, please supply its IC50.
1. O=C1CN2CCN(CCc3cccc(c3)Nc3nccc(n3)-c3ccc(nc3)NCCCN1)CC2 [Compound 118]
2. COCCN1CCNc2ccc(cn2)-c2ccnc(n2)Nc2cccc(c2)CN2CCN(CC2)CC1=O [Compound 123]
3. CN1CCCN(C)c2ccc(cn2)-c2ccnc(n2)Nc2ccc(C(N)=O)c(c2)CN2CCN(CC2)CC1=O [Compound 10]
4. CCCN1CCNC(=O)CN2CCN(CC2)Cc2cccc(c2)Nc2nccc(n2)-c2ccc(nc2)C1 [Compound 43]

Response line:
1: 7.94e-06 M; 2: 8.71e-06 M; 3: 3.63e-07 M; 4: 6.17e-09 M

For every item below, please supply its IC50.
1. CN1CCN(C)c2ccc(cn2)-c2ccnc(n2)Nc2cccc(c2)CN2CCNC(C2)C1=O (centres unmarked) [Compound 68]
2. O=C1CN2CCN(CC2)Cc2cccc(c2)Nc2nccc(n2)-c2ccc(nc2)NCCN1 [Compound 119]

Response line:
["2e-05 M", "7.94e-07 M"]

----------
So I've got a bunch of compounds here, and I need their log10(IC50) values.
# Experimental system: Vps34 (PIK3C3 lipid kinase) (Homo sapiens, UniProt Q8NEB9)
# Sequence (Q8NEB9 whole entry, species assumed): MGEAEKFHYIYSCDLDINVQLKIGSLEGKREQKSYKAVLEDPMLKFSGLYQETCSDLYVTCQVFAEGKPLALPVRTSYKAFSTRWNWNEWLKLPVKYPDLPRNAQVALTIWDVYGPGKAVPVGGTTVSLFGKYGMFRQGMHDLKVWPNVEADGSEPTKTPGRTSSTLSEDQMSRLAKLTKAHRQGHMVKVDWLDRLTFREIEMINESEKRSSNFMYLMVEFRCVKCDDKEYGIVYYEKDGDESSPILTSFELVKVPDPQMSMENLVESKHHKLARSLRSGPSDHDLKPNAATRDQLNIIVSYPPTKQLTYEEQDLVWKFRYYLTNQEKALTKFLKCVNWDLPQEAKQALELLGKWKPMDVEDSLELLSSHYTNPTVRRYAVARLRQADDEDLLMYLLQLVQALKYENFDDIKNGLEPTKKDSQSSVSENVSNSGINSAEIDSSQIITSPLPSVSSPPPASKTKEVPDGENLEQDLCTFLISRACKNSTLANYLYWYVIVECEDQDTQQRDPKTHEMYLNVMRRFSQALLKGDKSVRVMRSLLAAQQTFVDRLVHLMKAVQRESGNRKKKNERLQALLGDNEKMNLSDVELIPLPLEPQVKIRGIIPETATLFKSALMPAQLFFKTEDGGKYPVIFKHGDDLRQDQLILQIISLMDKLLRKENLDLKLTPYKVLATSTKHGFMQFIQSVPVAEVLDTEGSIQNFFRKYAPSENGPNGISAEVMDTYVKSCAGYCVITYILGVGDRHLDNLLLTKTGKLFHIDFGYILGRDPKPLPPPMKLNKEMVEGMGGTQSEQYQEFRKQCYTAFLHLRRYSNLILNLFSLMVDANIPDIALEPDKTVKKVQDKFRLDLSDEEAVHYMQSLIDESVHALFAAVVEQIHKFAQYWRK
# Assay overview: Biochemical Vps34 lipid kinase assay (ADP-Glo)
# Details: serial half-log dilution 10 μM to 0.3 nM; pIC50 = -log IC50 (M)
# Procedure: Biochemical Vps34 Lipid Kinase Assay A non-radiometric kinase assay (ADP-Glo™ Assay, Promega, Madison, Wi, USA) was used for measuring the kinase activity of the PIK3C3 lipid kinase. All kinase assays were performed in 96-well half-area microtiter plates in a 25 μl reaction volume. […] The reaction cocktails were incubated at 30° C. for 60 minutes. […] Signal was determined with a microplate luminescence reader (Victor, Perkin Elmer). […]
Heads up: the numbers are on a log10 scale; they represent IC50 in M.

• O=C1CN2CCCN(CC2)Cc2cccc(c2)Nc2nccc(n2)-c2ccc(nc2)NCCCN1 = -7.90
• O=C1CNCCCNc2ccc(cn2)-c2ccnc(n2)Nc2cccc(c2)N2CCN1CC2 = -6.77

For every item below, please supply its log10(IC50).
1. CN1CCCN(C)c2ccc(cn2)-c2ccnc(n2)Nc2cccc(c2)CN2CCC(CC2)CC1=O
2. CN1CCN(C)c2ccc(cn2)-c2ccnc(n2)Nc2cccc(c2)CN2CCN(C)C(C2)C1=O (stereo not drawn)
3. O=C1CNCCCNc2ccc(cn2)-c2ccnc(n2)Nc2cccc(c2)CN2CCN1CC2
4. CN1CCCN(C)c2ccc(cn2)-c2ccnc(n2)Nc2cccc(c2)CN2CCN(CC1=O)C(CCO)C2 (stereo not drawn)
5. O=C1CN2CCN(CC2)Cc2cc(ccc2Cl)Nc2nccc(n2)-c2ccc(nc2)NCCCN1
6. O=C1CN2CCN(CC2)Cc2cccc(c2)Nc2nccc(n2)-c2ccc(nc2)NCC(O)CN1 (single isomer, unassigned) [Compound 25]
7. O=C1CN2CCN(CC2)Cc2cccc(c2)Nc2nccc(n2)-c2ccc(nc2)NCCCN1

Response line:
[-6.05, -5.65, -7.22, -6.49, -6.92, -7.11, -7.06]

For every item below, please supply its log10(IC50).
1. CN1CCN(C)c2ccc(cn2)-c2ccnc(n2)Nc2cccc(c2)CN2CCNC(C2)C1=O (stereo not drawn)
2. CCCN1CCNC(=O)CN2CCN(CC2)Cc2cccc(c2)Nc2nccc(n2)-c2ccc(nc2)C1

Response line:
1. -6.11
2. -6.97

For every item below, please supply its log10(IC50).
1. CN1CCCN(C)c2ccc(cn2)-c2ccnc(n2)Nc2cccc(c2)CN2CCN(CC1=O)CC2CO (single isomer, unassigned) [Compound 52]
2. CN1CCCN(C)c2ccc(cn2)-c2ccnc(n2)Nc2cccc(c2)CCN2CCN(CC2)CC1=O
3. CN1CCCN(C)c2ccc(cn2)-c2ccnc(n2)Nc2cccc(c2)CN2CCN(C)C(CC1=O)C2 (stereo not drawn)
4. CC(C)N1CCCNc2ccc(cn2)-c2ccnc(n2)Nc2cccc(c2)CN2CCN(CC2)CC1=O

Response line:
1: -6.40; 2: -6.70; 3: -6.33; 4: -5.21
